molecular target: CHK a (CHKA) (Homo sapiens, UniProt P35790); test: Lipid kinase screening (ADP-Glo), CHKA; format: biochemical
Sequence (P35790 whole entry): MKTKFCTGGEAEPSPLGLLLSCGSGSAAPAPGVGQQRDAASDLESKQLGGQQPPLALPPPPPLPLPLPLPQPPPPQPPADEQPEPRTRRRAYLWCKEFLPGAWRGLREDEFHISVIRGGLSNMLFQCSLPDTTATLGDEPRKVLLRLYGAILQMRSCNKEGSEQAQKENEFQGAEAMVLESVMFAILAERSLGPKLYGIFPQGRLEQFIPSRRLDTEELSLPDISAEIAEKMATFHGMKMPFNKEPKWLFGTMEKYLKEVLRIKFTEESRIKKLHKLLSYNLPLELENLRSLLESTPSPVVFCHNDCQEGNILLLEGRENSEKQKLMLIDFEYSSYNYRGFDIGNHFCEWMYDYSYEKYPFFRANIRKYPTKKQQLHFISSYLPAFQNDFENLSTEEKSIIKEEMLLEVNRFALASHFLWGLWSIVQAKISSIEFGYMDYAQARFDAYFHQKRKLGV
propertyMeasured: inhibition at 10 µM (%)

# count of solved cases: 3
CC(=O)NCCCCC(NC(=O)OC(C)(C)C)C(=O)N1CCN(c2cc[n+](CCCCCCCCCCCCCC[n+]3ccc(N(C)C)cc3)cc2)CC1 (centres unmarked) :: 63
CN(C)c1cc[n+](CCCCCCCCCCCCCC[n+]2ccc(N3CCNCC3)cc2)cc1 :: 69
CN(C)c1cc[n+](CCCCCCCCCCCCCC[n+]2ccc(N3CCN(C(=O)CSC4CC(=O)N(CCC(=O)NCCCCCC(=O)NCCCCC(NC(=O)NC(CCC(=O)O)C(=O)O)C(=O)O)C4=O)CC3)cc2)cc1 (centres unmarked) :: 13.1

1. CN(C)c1cc[n+](CCCCCCCCCCCC[n+]2ccc(N(C)C)cc2)cc1
2. CN(C)c1cc[n+](CCCCCCCCCCCCCC[n+]2ccc(N(C)C)cc2)cc1.[Br-].[Br-] [CK14, reference compound]
QUERY: Given the listed records, identify the one among 1 and 2 with higher inhibition at 10 µM. Reply briefly: the label of your chosen item.
RESULT: 2
(2: 77%, 1: 53%)

---

target: PIP5K2A (Homo sapiens); experiment: Lipid kinase screening (ADP-Glo), PIP5K2A; assay type: biochemical
Sequence (P48426 whole entry): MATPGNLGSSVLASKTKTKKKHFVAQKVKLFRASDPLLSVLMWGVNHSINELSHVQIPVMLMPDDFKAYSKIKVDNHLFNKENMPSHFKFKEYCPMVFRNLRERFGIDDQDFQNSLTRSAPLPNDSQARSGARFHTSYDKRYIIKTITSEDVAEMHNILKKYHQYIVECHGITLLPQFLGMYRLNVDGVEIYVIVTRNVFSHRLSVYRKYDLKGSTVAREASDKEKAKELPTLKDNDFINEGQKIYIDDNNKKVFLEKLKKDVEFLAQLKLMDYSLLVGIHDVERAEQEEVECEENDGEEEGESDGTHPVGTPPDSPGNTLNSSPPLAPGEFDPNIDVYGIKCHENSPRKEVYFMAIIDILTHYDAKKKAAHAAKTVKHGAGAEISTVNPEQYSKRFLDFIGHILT
propertyMeasured: inhibition at 10 µM (%)

CN(C)c1cc[n+](CCCCCCCCCCCCCC[n+]2ccc(N3CCN(C(=O)CSC4CC(=O)N(CCC(=O)NCCCCCC(=O)NCCCCC(NC(=O)NC(CCC(=O)O)C(=O)O)C(=O)O)C4=O)CC3)cc2)cc1 (centres unmarked) [CK147] :: -1.5

P. CN(C)c1cc[n+](CCCCCCCCCCCCCC[n+]2ccc(N(C)C)cc2)cc1.[Br-].[Br-] [CK14, reference compound]
Q. CN(C)c1cc[n+](CCCCCCCCCCCC[n+]2ccc(N(C)C)cc2)cc1 [ICL-CCIC-0019]
R. CN(C)c1cc[n+](CCCCCCCCCCCCCC[n+]2ccc(N3CCNCC3)cc2)cc1 [CK146]
S. CC(=O)NCCCCC(NC(=O)OC(C)(C)C)C(=O)N1CCN(c2cc[n+](CCCCCCCCCCCCCC[n+]3ccc(N(C)C)cc3)cc2)CC1 (centres unmarked) [CK145]
QUERY: Could you please order the items by inhibition at 10 µM, going from the lowest number to the highest? Order the labels as requested and give them as your answer.
RESULT: Q, P, S, R

---

target: phosphatidylinositol 4-kinase beta (PIK4CB) (Homo sapiens); assay: Lipid kinase screening (ADP-Glo), PIK4CB; format: biochemical
Sequence (Q9UBF8 whole entry): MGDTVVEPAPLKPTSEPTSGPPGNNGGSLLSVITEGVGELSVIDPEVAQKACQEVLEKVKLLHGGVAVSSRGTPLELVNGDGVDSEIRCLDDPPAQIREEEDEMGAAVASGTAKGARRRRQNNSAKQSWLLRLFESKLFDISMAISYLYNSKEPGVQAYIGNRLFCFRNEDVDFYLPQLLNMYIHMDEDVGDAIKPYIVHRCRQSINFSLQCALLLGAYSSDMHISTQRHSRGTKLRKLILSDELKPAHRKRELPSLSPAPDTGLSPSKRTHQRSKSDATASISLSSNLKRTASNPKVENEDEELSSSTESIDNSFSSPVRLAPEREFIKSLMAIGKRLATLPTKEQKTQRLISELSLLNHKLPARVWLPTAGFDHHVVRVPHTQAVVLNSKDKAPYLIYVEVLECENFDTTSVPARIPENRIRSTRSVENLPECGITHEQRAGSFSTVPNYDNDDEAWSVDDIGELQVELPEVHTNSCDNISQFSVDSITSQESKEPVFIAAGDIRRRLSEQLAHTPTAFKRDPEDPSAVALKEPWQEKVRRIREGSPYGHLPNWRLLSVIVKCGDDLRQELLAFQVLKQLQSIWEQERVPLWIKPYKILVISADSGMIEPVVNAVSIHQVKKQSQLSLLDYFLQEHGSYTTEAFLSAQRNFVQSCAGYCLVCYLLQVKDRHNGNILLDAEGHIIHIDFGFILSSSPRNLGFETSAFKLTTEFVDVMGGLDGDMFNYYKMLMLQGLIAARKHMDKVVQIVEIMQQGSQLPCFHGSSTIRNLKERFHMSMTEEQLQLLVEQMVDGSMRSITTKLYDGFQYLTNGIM
propertyMeasured: inhibition at 10 µM (%)

Some solved entries appear below for comparison.
CN(C)c1cc[n+](CCCCCCCCCCCCCC[n+]2ccc(N3CCN(C(=O)CSC4CC(=O)N(CCC(=O)NCCCCCC(=O)NCCCCC(NC(=O)NC(CCC(=O)O)C(=O)O)C(=O)O)C4=O)CC3)cc2)cc1 (centres unmarked) [CK147] :: 0.5
CN(C)c1cc[n+](CCCCCCCCCCCCCC[n+]2ccc(N3CCNCC3)cc2)cc1 [CK146] :: 47

P. CC(=O)NCCCCC(NC(=O)OC(C)(C)C)C(=O)N1CCN(c2cc[n+](CCCCCCCCCCCCCC[n+]3ccc(N(C)C)cc3)cc2)CC1 (centres unmarked) [CK145]
Q. CN(C)c1cc[n+](CCCCCCCCCCCC[n+]2ccc(N(C)C)cc2)cc1 [ICL-CCIC-0019]
R. CN(C)c1cc[n+](CCCCCCCCCCCCCC[n+]2ccc(N(C)C)cc2)cc1.[Br-].[Br-] [CK14, reference compound]
QUERY: Reorder the items by inhibition at 10 µM, least to greatest. Reply with the item labels sorted in the order that was asked for.
RESULT: Q, R, P

Every entry's value here was drawn from paper PMC8309005.
